# test system: DLG4_1, P78352
# Sequence (P78352 62-152): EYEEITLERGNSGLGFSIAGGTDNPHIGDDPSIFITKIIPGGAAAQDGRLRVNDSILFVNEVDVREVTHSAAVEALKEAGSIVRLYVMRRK
# experiment summary: holdup assay
# Parameters: key: below the threshold = too weak to quantify, mostly under pKd 3.1 to 4
# assay context: plain residues with an end cap or a label only (N-terminal biotin on a linker: ado-ado)
test readout: pKd

RKPKPSSSCC [RAB9A, P51151]    below the threshold
RRLPGKETMA [GRIK2, Q13002]    below the threshold
YYKRPVQEWV [MMP24, Q9Y5R2]    below the threshold
KKAPTNEFYA [SDC4, P31431]    below the threshold
QPCFNKLFPL [LPXN, O60711]    below the threshold
YNNCLEILRV [DCAF7, P61962]    below the threshold
SNAGNTATKA [NOSTRIN, Q8IVI9]    below the threshold
NLSIEKETKL [ASNSD1, Q9NWL6]    below the threshold
HSGYRLNDYV [CLDN14, O95500]    below the threshold
PEYLGLDVPV [ERBB2, P04626]    below the threshold
PRISRSQSEL [CCDC134, Q9H6E4]    below the threshold
TLPRKRMSSI [GPRC6A, Q5T6X5]    below the threshold
VRNLPESEEL [MYOZ3, Q8TDC0]    below the threshold
SSALYGESDL [ACTN2, P35609]    below the threshold
YLEPVLSSEL [ATP2A2, P16615;P16615-3]    below the threshold
EALLQMESVA [CAVIN3, Q969G5]    below the threshold
LSEFKAMDSI [CTNNA1, P35221]    below the threshold
VDSTVKVWTC [TRAF7, Q6Q0C0]    below the threshold
QMNQTLPVQV [EPHB3, P54753]    below the threshold
